target-desc: Avi-KRAS G12D (1-169) GppNHp/RAF1 RBD-3xFLAG (52-151) (Homo sapiens, UniProt P01116, G12D)
Construct: Avi-KRAS G12D (1-169)
Sequence (P01116 1-169 isoform P01116-2 G12D): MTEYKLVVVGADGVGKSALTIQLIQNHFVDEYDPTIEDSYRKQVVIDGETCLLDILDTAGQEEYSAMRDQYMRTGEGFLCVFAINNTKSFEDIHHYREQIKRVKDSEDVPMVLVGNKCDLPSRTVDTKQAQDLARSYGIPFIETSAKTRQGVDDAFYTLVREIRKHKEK
assay-name: Raf1-KRAS G12D-GppNHP disruption HTRF assay (Biological Example 1)
Format: binding
assay-setup: KRAS G12D, GppNHp-loaded; class symbols
quantity-name: IC50

# get_value(readout='IC50', item= CC[C@H](C)C(=O)N1CC[C@H](N(CC)c2nc(OC[C@@]34CCCN3C[C@H](F)C4)nc3c(F)c(-c4ccc(F)c5sc(N)c(C#N)c45)c(C(F)(F)F)cc23)C1 (atropisomer, axis not shown) ) < 100 nM

# get_value(readout='IC50', item= CCN(c1nc(OC[C@@]23CCCN2C[C@H](F)C3)nc2c(F)c(-c3ccc(F)c4sc(N)c(C#N)c34)c(C(F)(F)F)cc12)[C@H]1CCN(C(=O)N2CC3(CC3)C2)C1 (atropisomer, axis not shown) ) < 100 nM

# get_value(readout='IC50', item= N#Cc1c(N)sc2c(F)ccc(-c3c(C(F)(F)F)cc4c(N(C5CC5)[C@H]5CCS(=O)(=O)C5)nc(OC[C@@]56CCCN5C[C@H](F)C6)nc4c3F)c12 ) 1000 to 10000 nM

# get_value(readout='IC50', item= CCN(c1nc(OC[C@@]23CCCN2C[C@H](F)C3)nc2c(F)c(-c3ccc(F)c4sc(N)c(C#N)c34)c(C(F)(F)F)cc12)[C@H]1CCN(C(=O)c2cc(C)no2)C1 (atropisomer, axis not shown) ) < 100 nM

====

target-desc: Avi-KRAS G12C (2-169) GTP/RAF1 RBD-3xFLAG (51-131) (Homo sapiens, UniProt P01116, G12C)
Construct: Avi-KRAS G12C (2-169)
Sequence (P01116 2-169 isoform P01116-2 G12C): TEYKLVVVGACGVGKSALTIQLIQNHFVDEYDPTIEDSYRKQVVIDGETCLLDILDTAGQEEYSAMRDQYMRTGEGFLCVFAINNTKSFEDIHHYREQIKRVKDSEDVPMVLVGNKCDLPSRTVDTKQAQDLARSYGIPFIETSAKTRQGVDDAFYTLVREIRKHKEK
assay-name: Raf1-KRAS G12C-GTP disruption HTRF assay (Biological Example 3)
Type: binding
assay-setup: KRAS G12C, GTP-loaded
pIC50: −log10 of the molar value.
quantity-name: pIC50

# get_value(readout='pIC50', item= CCN(c1nc(OC[C@@]23CCCN2C[C@H](F)C3)nc2c(F)c(-c3ccc(F)c4sc(N)c(C#N)c34)c(C(F)(F)F)cc12)[C@@H]1CC(=O)N(C2CC2)C1 [Compound 537] ) 6.00 to 7.00

# get_value(readout='pIC50', item= CCN(c1nc(OC[C@@]23CCCN2C[C@H](F)C3)nc2c(F)c(-c3ccc(F)c4sc(N)c(C#N)c34)c(C(F)(F)F)cc12)[C@H]1C[C@H](COC)N(C(=O)N2CC(F)C2)C1 [Compound 875] ) 6.00 to 7.00

# get_value(readout='pIC50', item= CCN(c1nc(OC[C@@]23CCCN2C[C@H](F)C3)nc2c(F)c(-c3ccc(F)c4sc(N)c(C#N)c34)c(C(F)(F)F)cc12)C1CCN(C(=O)OC)C1 (stereo partly drawn) [Compound 947] ) 5.00 to 6.00

====

Exercise: state measured IC50 for each of the compounds provided.
target-desc: Avi-KRAS G12C (2-169) GTP/RAF1 RBD-3xFLAG (51-131) (Homo sapiens, UniProt P01116, G12C)
Construct: Avi-KRAS G12C (2-169)
assay-name: Raf1-KRAS G12C-GTP disruption HTRF assay (Biological Example 3)
Format: binding
assay-setup: KRAS G12C, GTP-loaded

# get_value(readout='IC50', item= CN(c1nc(OCC23CCCN2CC(F)C3)nc2c(F)c(-c3ccc(F)c4sc(N)c(C#N)c34)c(C(F)(F)F)cc12)C1CCc2ccncc21 (stereo not drawn) [Compound 962] ) > 10 µM

# get_value(readout='IC50', item= CCN(c1nc(OC[C@@]23CCCN2C[C@H](F)C3)nc2c(F)c(-c3ccc(F)c4sc(N)c(C#N)c34)c(C(F)(F)F)cc12)[C@H]1CCN(C(=O)N2CCN(C(C)=O)CC2)C1 (atropisomer, axis not shown) ) 0.1 to 1 µM

# get_value(readout='IC50', item= CCN(Cc1cccnc1)c1nc(OC[C@@]23CCCN2C[C@H](F)C3)nc2c(F)c(-c3ccc(F)c4sc(N)c(C#N)c34)c(C(F)(F)F)cc12 (atropisomer, axis not shown) ) 1 to 10 µM

# get_value(readout='IC50', item= CCN(c1nc(OC[C@@]23CCCN2C[C@H](F)C3)nc2c(F)c(-c3ccc(F)c4sc(N)c(C#N)c34)c(C(F)(F)F)cc12)[C@H]1CCN(C(=O)c2ccon2)[C@@H]1C ) 0.1 to 1 µM

# get_value(readout='IC50', item= CCN(c1nc(OC[C@@]23CCCN2C[C@H](F)C3)nc2c(F)c(-c3ccc(F)c4sc(N)c(C#N)c34)c(C(F)(F)F)cc12)[C@H]1CCN(C(=O)[C@@H]2CCO2)[C@@H]1C (atropisomer, axis not shown) ) ≤ 0.1 µM

# get_value(readout='IC50', item= CCN(c1nc(OC[C@@]23CCCN2C[C@H](F)C3)nc2c(F)c(-c3ccc(F)c4sc(N)c(C#N)c34)c(C(F)(F)F)cc12)[C@@H]1CCN(C(=O)[C@@H]2CCO2)[C@@H]1C (atropisomer, axis not shown) ) 0.1 to 1 µM

# get_value(readout='IC50', item= COC(=O)N1CC[C@H](N(CCF)c2nc(OC[C@@]34CCCN3C[C@H](F)C4)nc3c(F)c(-c4ccc(F)c5sc(N)c(C#N)c45)c(C(F)(F)F)cc23)C1 (atropisomer, axis not shown) ) 0.1 to 1 µM

# get_value(readout='IC50', item= CCN(c1nc(OC[C@@]23CCCN2C[C@H](F)C3)nc2c(F)c(-c3ccc(F)c4sc(N)c(C#N)c34)c(C(F)(F)F)cc12)[C@H]1C[C@H](C)N(C(=O)c2cocn2)C1 (atropisomer, axis not shown) ) 0.1 to 1 µM

# get_value(readout='IC50', item= CCN(c1nc(OC[C@@]23CCCN2C[C@H](F)C3)nc2c(F)c(-c3ccc(F)c4sc(N)c(C#N)c34)c(C(F)(F)F)cc12)[C@H]1C[C@H](COC)N(C(=O)[C@@H]2C[C@H]2F)C1 (atropisomer, axis not shown) ) 0.1 to 1 µM

# get_value(readout='IC50', item= CCN(c1nc(OC[C@@]23CCCN2C[C@H](F)C3)nc2c(F)c(-c3ccc(F)c4sc(N)c(C#N)c34)c(C(F)(F)F)cc12)[C@H]1C[C@H](COC)N(C(=O)[C@H]2CCO2)C1 (atropisomer, axis not shown) ) 0.1 to 1 µM

# get_value(readout='IC50', item= CCN(c1nc(OC[C@@]23CCCN2C[C@H](F)C3)nc2c(F)c(-c3ccc(F)c4sc(N)c(C#N)c34)c(C(F)(F)F)cc12)[C@H]1C[C@H]2CCCC(=O)N2C1 (atropisomer, axis not shown; (aR)) ) ≤ 0.1 µM

# get_value(readout='IC50', item= CCN(c1nc(OC[C@@]23CCCN2C[C@H](F)C3)nc2c(F)c(-c3ccc(F)c4sc(N)c(C#N)c34)c(C(F)(F)F)cc12)[C@H]1CCN(C(=O)N2CC3C(C2)C3(C)C)C1 (stereo partly drawn) ) 0.1 to 1 µM

# get_value(readout='IC50', item= CCN(c1nc(OC[C@@]23CCCN2C[C@H](F)C3)nc2c(F)c(-c3ccc(F)c4sc(N)c(C#N)c34)c(C(F)(F)F)cc12)[C@H]1C[C@H]2COCC(=O)N2C1 (atropisomer, axis not shown) ) ≤ 0.1 µM

# get_value(readout='IC50', item= CCN(c1nc(OC[C@@]23CCCN2C[C@H](F)C3)nc2c(F)c(-c3ccc(F)c4sc(N)c(C#N)c34)c(C(F)(F)F)cc12)[C@H]1C[C@H]2CN(C(C)(C)C)C(=O)N2C1 (atropisomer, axis not shown) ) 1 to 10 µM

# get_value(readout='IC50', item= CN(C)C(=O)c1nn2c(c1Cl)CN(c1nc(OC[C@@]34CCCN3C[C@H](F)C4)nc3c(F)c(-c4ccc(F)c5sc(N)c(C#N)c45)c(C(F)(F)F)cc13)CC2 ) 0.1 to 1 µM

# get_value(readout='IC50', item= CCN(c1nc(OC[C@@]23CCCN2C[C@H](F)C3)nc2c(F)c(-c3ccc(F)c4sc(N)c(C#N)c34)c(C(F)(F)F)cc12)[C@H]1C[C@@H]2CCN(C)C(=O)N2C1 (atropisomer, axis not shown) ) 0.1 to 1 µM

# get_value(readout='IC50', item= C[C@@H](c1cccnc1)N(C)c1nc(OC[C@@]23CCCN2C[C@H](F)C3)nc2c(F)c(-c3ccc(F)c4sc(N)c(C#N)c34)c(C(F)(F)F)cc12 ) 1 to 10 µM

# get_value(readout='IC50', item= CCN(c1nc(OC[C@@]23CCCN2C[C@H](F)C3)nc2c(F)c(-c3ccc(F)c4sc(N)c(C#N)c34)c(C(F)(F)F)cc12)[C@H]1C[C@@H](C)N(C(=O)[C@H]2CCO2)C1 (atropisomer, axis not shown) ) 0.1 to 1 µM

Data provenance is patent US20260042764A1.
